Cited source: PubChem BioAssay (NCI)

- Tested on: MDA-MB-231 breast
- measurement protocol: NCI-60 one-dose screen, 48 h (100 = growth as untreated, 0 = no growth, -100 = all killed)
- experimental setup: 10 µM unless noted
Compounds without any hit were thinned out: in the full panel of roughly 83,000, 20% have a hit.
measure: growth (%)
Respond with the bare value in %.

Lookup: Return value of growth for input Nc1n[nH]c2cccc(C#Cc3cccc(NC(=O)c4cc(N5CCOCC5)cc(C(F)(F)F)c4)c3)c12 , no commentary.
Found: 30

Lookup: Specify reported growth for the compound shown: CCOC(=O)C(=Cc1c(-c2ccccc2)[nH]c2ccccc12)C(=O)OCC
Found: 63.3

Lookup: Input NC(=O)C(O)(c1ccccc1)c1ccccc1 , output reported growth.
Found: 108

Lookup: Tell me growth reported for C=C(C)[C@@H]1CC[C@]2(C(=O)O)CC[C@]3(C)[C@H](CC[C@@H]4[C@@]5(C)C[C@@H](CC#Cc6ccccc6)C(=O)C(C)(C)[C@@H]5CC[C@]43C)[C@@H]12
Found: 55.3

----------
- Test system: MALME-3M melanoma
- measurement protocol: NCI-60 one-dose screen, 48 h
- experimental setup: 10 µM unless noted
Compounds without any hit were thinned out: in the full panel of roughly 83,000, 20% have a hit. The source made the active and inactive calls. Rule for the calls: active = growth percent below 10; inactive = the rest.
Outcomes you can answer with include only these: y for active, n for inactive

Lookup: Kindly provide the recorded test outcome for the following compound: COc1cc2c(cc1OCCCOc1cc3c(cc1OC)C(=O)N1CC(F)(F)C[C@H]1C=N3)N=C[C@@H]1CC(F)(F)CN1C2=O
Found: y

Lookup: # lookup: test call for CN1CCN(S(=O)(=O)O[C@@H]2C(=O)N(c3cc4c5ccccc5ccc4c4ccccc34)[C@H]2c2ccc(F)cn2)CC1
Found: n

Lookup: Query: recorded result category for O=[N+]([O-])c1ccc(Oc2ccc(-c3ccccc3)cc2)cc1 in this test
Found: n

Lookup: Any idea what this test logged for CCCNc1nc(C)[nH]c(=O)c1S ?
Found: n

Lookup: Assay result, entry Nc1c(C(=O)Nc2ccccn2)sc2nc3c(cc12)CCCCCC3 — outcome?
Found: n

Lookup: Kindly provide the recorded test outcome for the following compound: O=C(CN1N=C(c2ccc(F)cc2)CCC1=O)Nc1nccs1
Found: n

Lookup: Which outcome was entered for the compound N#Cc1ccc(N2Cc3cc(Cl)ccc3OC3=C2C(=O)N(Cc2ccccc2)C3=O)cc1 in this test?
Found: y

Lookup: Kindly provide the recorded test outcome for the following compound: CCCCn1c2cc(OCc3cn(-c4ccc(Cl)cc4)nn3)ccc2c2ccnc(C)c21
Found: n

Lookup: Dear colleague, could you share the recorded outcome for O=C(O)c1cn(C2CC2)c2cc(N3CCN(C(=O)CSc4nnc(-c5ccc(Cl)cc5)n4-c4ccccc4)CC3)c(F)cc2c1=O when you have a moment?
Found: n

Lookup: Please indicate how the test categorized COc1cccc2c1-c1ccccc1C2=O .
Found: n

Lookup: Could you kindly confirm the outcome this assay logged for C=C1C(=O)O[C@H]2[C@H]1CC/C(COC(=O)CCCCCCCCC(=O)OC/C1=C/CC[C@@]3(C)O[C@H]3[C@H]3OC(=O)C(=C)[C@@H]3CC1)=C\CC[C@@]1(C)O[C@@H]21 ?
Found: y

Lookup: Status in this test for N#Cc1c(-c2ccc(F)cc2)c(C#N)c2c(C#N)c(N)nn2c1N ?
Found: n
